# TARGET ENTITY: PEG-3 (UniProt Q6IN02)
# Sequence (Q6IN02 whole entry, looked up): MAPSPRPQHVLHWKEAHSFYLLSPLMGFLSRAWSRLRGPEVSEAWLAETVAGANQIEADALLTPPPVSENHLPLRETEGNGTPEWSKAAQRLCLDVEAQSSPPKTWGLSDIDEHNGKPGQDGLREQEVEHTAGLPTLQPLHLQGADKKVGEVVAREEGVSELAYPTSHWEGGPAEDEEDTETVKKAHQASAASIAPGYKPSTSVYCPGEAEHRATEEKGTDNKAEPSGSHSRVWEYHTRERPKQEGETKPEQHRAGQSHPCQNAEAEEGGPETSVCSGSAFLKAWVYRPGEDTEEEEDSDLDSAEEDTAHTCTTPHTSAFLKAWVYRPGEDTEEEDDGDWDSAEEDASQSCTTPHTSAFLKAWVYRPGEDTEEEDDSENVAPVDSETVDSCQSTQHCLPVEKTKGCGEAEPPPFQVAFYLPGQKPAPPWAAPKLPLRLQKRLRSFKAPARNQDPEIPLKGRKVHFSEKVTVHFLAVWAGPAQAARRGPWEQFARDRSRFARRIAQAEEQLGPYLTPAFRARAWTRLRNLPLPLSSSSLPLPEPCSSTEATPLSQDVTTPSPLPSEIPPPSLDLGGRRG
# MEASUREMENT NOTES: Peg3 promoter luciferase inhibitors, potency, dose response, cell-based, HeLa, CREF/GAPDH counter-screen panel (AID 624167)
# TEST SETTINGS: HeLa PEG-Prom luciferase reporter, overnight, CREF/GAPDH counter-screens, mean of runs
Active and inactive are the calls of the source.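 How the source made its calls: active means mean IC50 for reducing PEG3 promoter reporter signal at or below a set limit, with IC50 above the limit in both counter screens; inactive means the rest, including counter screen hits.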
MEASUREMENT KIND: IC50

{"COMPOUND": "CCOc1cc(CNCCO)cc(Br)c1OCc1ccccc1Cl", "MEASUREMENT KIND": "IC50", "MEASURED RESULT": "inactive"}
{"COMPOUND": "CN(C(=O)OC(C)(C)C)c1ccc(-c2nc3ccccc3s2)cc1", "MEASUREMENT KIND": "IC50", "MEASURED RESULT": "2.31 µM"}
{"COMPOUND": "Cc1cc(NC(c2ccc(Cl)cc2)c2ccc3cccnc3c2O)no1 (stereo unspecified)", "MEASUREMENT KIND": "IC50", "MEASURED RESULT": "3.83 µM"}
{"COMPOUND": "COc1cc(CNC(C)(C)CO)cc(Br)c1OCc1ccc(Cl)cc1", "MEASUREMENT KIND": "IC50", "MEASURED RESULT": "16.6 µM"}
{"COMPOUND": "c1ccc(-c2noc(-c3ccc4c(c3)OCO4)n2)nc1", "MEASUREMENT KIND": "IC50", "MEASURED RESULT": "0.818 µM"}
{"COMPOUND": "COc1cc(SC)ccc1C(=O)Nc1nc2ccccc2[nH]1", "MEASUREMENT KIND": "IC50", "MEASURED RESULT": "inactive"}

----------
# TARGET ENTITY: PEG-3 (UniProt Q6IN02)
# MEASUREMENT NOTES: Peg3 promoter luciferase inhibitors, potency, dose response, cell-based, HeLa, CREF/GAPDH counter-screen panel (AID 624167)
# TEST SETTINGS: HeLa PEG-Prom luciferase reporter, overnight, CREF/GAPDH counter-screens, mean of runs
Active and inactive are the calls of the source.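 How the source made its calls: active means mean IC50 for reducing PEG3 promoter reporter signal at or below a set limit, with IC50 above the limit in both counter screens; inactive means the rest, including counter screen hits.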
Possible outcomes: active, inactive

{"MOLECULE": "CC1(C)Oc2cc3oc(-c4cc(O)cc(O)c4)cc3cc2CC1O (configuration not stated)", "CLASSIFICATION": "inactive"}
{"MOLECULE": "CCN1CCCC1CN(Cc1cc2ccc(C)cc2[nH]c1=O)C(=S)Nc1ccc(OC)cc1 (configuration not stated)", "CLASSIFICATION": "inactive"}
{"MOLECULE": "CC1(C)CC(NCCN2CCN(C3=CC(=C(C#N)C#N)CC(C)(C)C3)CC2)=CC(=C(C#N)C#N)C1", "CLASSIFICATION": "inactive"}
{"MOLECULE": "O=C1C(Cl)=C(Nc2ccccc2)C(=O)c2ccccc21", "CLASSIFICATION": "active"}
{"MOLECULE": "O=C(Nc1ccccc1)c1nc[nH]c1C(=O)NCCCNC(=O)c1[nH]cnc1C(=O)Nc1ccccc1", "CLASSIFICATION": "inactive"}
{"MOLECULE": "O=C1CCCCC1Sc1nnc(-c2ccc3c(c2)OCO3)o1 (configuration not stated)", "CLASSIFICATION": "active"}
{"MOLECULE": "COc1ccc(C2c3ccc4ccccc4c3Oc3ncn(CCO)c(=N)c32)cc1OC (configuration not stated)", "CLASSIFICATION": "active"}
{"MOLECULE": "CCN1CCN(c2ccc(S(=O)(=O)N3CCOCC3)cc2NC(=O)/C=C/c2ccc([N+](=O)[O-])cc2)CC1", "CLASSIFICATION": "inactive"}
{"MOLECULE": "O=C(CNc1ccccc1)N/N=C/c1c(O)ccc2ccccc12", "CLASSIFICATION": "inactive"}
{"MOLECULE": "CC(=O)Nc1ccc(Nc2nc(C)c([N+](=O)[O-])c(Nc3ccccc3)n2)cc1", "CLASSIFICATION": "inactive"}
{"MOLECULE": "COc1cccc(C(=O)O/N=C(\\N)c2ccccn2)c1", "CLASSIFICATION": "active"}
{"MOLECULE": "C[C@@H]1C[C@@H]([C@H](O)CC2CC(=O)NC(=O)C2)C(=O)[C@@H](C)C1", "CLASSIFICATION": "active"}
{"MOLECULE": "COc1ccccc1C(=O)Nc1nc2ccccc2s1", "CLASSIFICATION": "active"}
{"MOLECULE": "O=C(CCCN1C(=O)/C(=C/c2ccccc2Cl)SC1=S)NNC(=O)c1ccccc1Cl", "CLASSIFICATION": "inactive"}
{"MOLECULE": "CN(C)CCCN(C(=O)c1ccc(S(=O)(=O)N2CCc3ccccc3C2)cc1)c1nc2ccc(F)cc2s1", "CLASSIFICATION": "active"}
{"MOLECULE": "CCCCN(C)C(=O)c1ccc(Nc2nc(C(N)CCc3ccccc3)cs2)nc1 (configuration not stated)", "CLASSIFICATION": "inactive"}
{"MOLECULE": "Cc1ccc2nc(NC(=O)c3ccccn3)sc2c1", "CLASSIFICATION": "active"}
{"MOLECULE": "NC(=O)c1nsc(C(=O)N(c2ccccc2F)C(C(=O)NCc2ccccc2)c2ccc(O)cc2)c1N (configuration not stated)", "CLASSIFICATION": "inactive"}
{"MOLECULE": "Cc1ccsc1C(=O)OCC(=O)c1cc(C)n(CC2CCCO2)c1C (configuration not stated)", "CLASSIFICATION": "active"}
{"MOLECULE": "CCCCCc1ccc(OCCCC[n+]2cccc(C)c2)c(CCCCC)c1", "CLASSIFICATION": "active"}
{"MOLECULE": "O=S(=O)(CC(CN1CCCCC1)N1CCCCC1)c1ccccc1 (configuration not stated)", "CLASSIFICATION": "inactive"}
{"MOLECULE": "Cc1ccc(-c2cn3cc(C)ccc3n2)cc1", "CLASSIFICATION": "active"}
{"MOLECULE": "OC[C@@H]1[C@@H](c2ccc(Cl)cc2)C(c2cccc(Cl)c2)=NN1c1ccccc1", "CLASSIFICATION": "inactive"}
{"MOLECULE": "O=C(O)c1cccc(COc2ccc(CO)cc2Cl)c1", "CLASSIFICATION": "active"}
{"MOLECULE": "COCOCCn1cc(CN2CCS(=O)(=O)N(Cc3ccc(-c4ccc(Cl)c(Cl)c4)cc3)C(C(C)C)C2=O)nn1 (configuration not stated)", "CLASSIFICATION": "inactive"}
{"MOLECULE": "CCCc1ccc(C(=O)O/N=C(\\N)c2ccccn2)cc1", "CLASSIFICATION": "inactive"}
{"MOLECULE": "CC(C)(C)n1nnnc1C(CCc1ccccc1)N1CCC(n2c(=O)[nH]c3ccccc32)CC1 (configuration not stated)", "CLASSIFICATION": "inactive"}
{"MOLECULE": "COc1cccc(/C=N/Nc2cc(C)nc(-c3ccccc3O)n2)c1O", "CLASSIFICATION": "active"}
{"MOLECULE": "COC(COC(N)=O)C1=C(N2CC2)C(=O)C(C)=C(N2CC2)C1=O (configuration not stated)", "CLASSIFICATION": "active"}
{"MOLECULE": "CC(=O)N1CCN(c2cc(-c3ccccc3)nc3cc(-c4cccc(Cl)c4)nn23)CC1", "CLASSIFICATION": "inactive"}
{"MOLECULE": "CCOc1ccc2[nH]c3c(NCCc4ccc(OC)c(OC)c4)ncnc3c2c1", "CLASSIFICATION": "inactive"}
{"MOLECULE": "Cc1ccc(C(=O)NCCc2cccs2)cc1", "CLASSIFICATION": "active"}
{"MOLECULE": "Cc1cc(C(=O)COC(=O)c2ccccc2O)c(C)n1Cc1cccs1", "CLASSIFICATION": "active"}
{"MOLECULE": "CCCc1nc(SCC(=O)N2CCCc3ccccc32)c2c(=O)n(C)c(=O)n(C)c2n1", "CLASSIFICATION": "inactive"}
{"MOLECULE": "CC1=CC2OC3CC4OC(=O)C=CC=CC(C(C)O)OCC(O)C(C)CC(=O)OCC2(CC1O)C4(C)C31CO1 (configuration not stated)", "CLASSIFICATION": "active"}
{"MOLECULE": "O=C(COc1ccc(Cl)cc1Cl)Nc1ccccn1", "CLASSIFICATION": "active"}
{"MOLECULE": "Nc1ccc(-c2nc3ccc(C(=O)O)cc3s2)cc1", "CLASSIFICATION": "active"}
{"MOLECULE": "CCCN1C=CC(=C2C(=O)c3ccccc3C2=O)C=C1", "CLASSIFICATION": "active"}
{"MOLECULE": "O=C(C[C@H]1C[C@H](C(=O)N2CCCCC2)[C@@]2(CCc3ccccc3)c3[nH]c4ccc(Cl)cc4c3CCN2C1=O)NCCc1ccccn1", "CLASSIFICATION": "inactive"}
{"MOLECULE": "O=S(=O)(c1cccc(F)c1)N1CCN(c2nc(-c3cccnc3)nc3ccccc23)CC1", "CLASSIFICATION": "active"}
{"MOLECULE": "Cc1ccc(-c2nc(C(Cl)Cl)c3ccccc3n2)cc1", "CLASSIFICATION": "inactive"}
{"MOLECULE": "OCCN1CCN(C2CCC(c3ccc(F)cc3)c3ccc(F)cc32)CC1 (configuration not stated)", "CLASSIFICATION": "inactive"}
